- ASSAY_EXPLANATION: Clearance of compound in rats (n= 3) after intravenous administration at 10 mpk
- Format: ADME, organism-based
- TEST_PARAMETERS: rat, in vivo, 10 mg/kg
METRIC_NAME: clearance (mL/min/kg)
Your answer should be a plain number; it is taken to be in mL/min/kg.

**Q:** # return recorded clearance for entry "CN1CCN(CCCCN(C(=O)Nc2ccc(F)c(C(F)(F)F)c2)[C@@H]2CC[C@]3(c4ccc(C#N)cc4)C[C@H]23)CC1"
**A:** 21.8
